Kindly supply the reported MIC90 values for the records listed here.
Tested on: Candida orthopsilosis
Test: Antimicrobial activity against Candida orthopsilosis by broth microdilution method
Assay type: functional
Conditions: Lodderomyces orthopsilosis
*1 amine or outer side, *2 acyl side, *3 side chain or, on linkers, in order; H or OH if unused. Where a SMILES comes first, the peptide text is derived from it. Bridges are numbered along the chain shown (N, C = ends). [ ]: non-standard residue; d: D form. The star is where a group is joined. hTyr(3S-OH,4S-OH,3'-OSO3H) = N[C@H](C(=O)O)[C@H](O)[C@@H](O)c1ccc(O)c(OS(=O)(=O)O)c1; Orn(4R-OH,5R-OH) = O=C([C@H](C[C@@H](O)[C@@H](O)N[*:3])N[*:1])[*:2]; Pro(3S-OH,4S-Me) = C[C@H]1CN[C@H](C(=O)O)[C@H]1O; X1 = CCCCCOc1ccc(-c2cc(-c3ccc(C(=O)*)cc3)no2)cc1; Gln(3R-OH) = NC(=O)C[C@@H](O)[C@H](N)C(=O)O; Hyp = O=C(O)[C@@H]1C[C@@H](O)CN1
Numbers only, in µg/mL.

See these solved cases before continuing.
| compound | units-text | measured-result |
| --- | --- | --- |
| CCCCCOc1ccc(-c2cc(-c3ccc(C(=O)N[C@H]4C[C@@H](O)[C@@H](O)NC(=O)[C@@H]5[C@@H](O)[C@@H](C)CN5C(=O)[C@H]([C@H](O)CC(N)=O)NC(=O)[C@H]([C@H](O)[C@@H](O)c5ccc(O)c(OS(=O)(=O)O)c5)NC(=O)[C@@H]5C[C@@H](O)CN5C(=O)[C@H]([C@@H](C)O)NC4=O)cc3)no2)cc1 [MICAFUNGIN] (X1-[Orn(4R-OH,5R-OH)]T[Hyp][hTyr(3S-OH,4S-OH,3'-OSO3H)][Gln(3R-OH)][Pro(3S-OH,4S-Me)]; lactam 1-C) | µg/mL | 0.12 |
| Nc1nc(=O)[nH]cc1F | µg/mL | 16 |

With Candida orthopsilosis as the test system, provide measured MIC90 for this compound: CC[C@H](C)C[C@H](C)CCCCCCCCC(=O)N[C@H]1C[C@@H](O)[C@@H](NCCN)NC(=O)[C@@H]2[C@@H](O)CCN2C(=O)[C@H]([C@H](O)CCN)NC(=O)[C@H]([C@H](O)[C@@H](O)c2ccc(O)cc2)NC(=O)[C@@H]2C[C@@H](O)CN2C(=O)[C@H]([C@@H](C)O)NC1=O
0.5

----------
Tested on: Penicillium
Assay: Antimicrobial activity against Penicillium spp. by broth microdilution method
Assay type: functional
*1 amine or outer side, *2 acyl side, *3 side chain or, on linkers, in order; H or OH if unused. Where a SMILES comes first, the peptide text is derived from it. Bridges are numbered along the chain shown (N, C = ends). [ ]: non-standard residue; d: D form. The star is where a group is joined. pTerphenylCO(4''-OnC5H11) = CCCCCOc1ccc(-c2ccc(-c3ccc(C(=O)*)cc3)cc2)cc1; Orn(4R-OH,5R-OH) = O=C([C@H](C[C@@H](O)[C@@H](O)N[*:3])N[*:1])[*:2]; hTyr(3S-OH,4S-OH) = N[C@H](C(=O)O)[C@H](O)[C@@H](O)c1ccc(O)cc1; Pro(3S-OH,4S-Me) = C[C@H]1CN[C@H](C(=O)O)[C@H]1O; Hyp = O=C(O)[C@@H]1C[C@@H](O)CN1
experimental-endpoint: MIC50
The reply must contain the numeric value and, after it, the unit.

# return recorded MIC50 for entry CCCCCOc1ccc(-c2ccc(-c3ccc(C(=O)N[C@H]4C[C@@H](O)[C@@H](O)NC(=O)[C@@H]5[C@@H](O)[C@@H](C)CN5C(=O)[C@H]([C@@H](C)O)NC(=O)[C@H]([C@H](O)[C@@H](O)c5ccc(O)cc5)NC(=O)[C@@H]5C[C@@H](O)CN5C(=O)[C@H]([C@@H](C)O)NC4=O)cc3)cc2)cc1 [ANIDULAFUNGIN] ({pTerphenylCO(4''-OnC5H11)}-[Orn(4R-OH,5R-OH)]T[Hyp][hTyr(3S-OH,4S-OH)]T[Pro(3S-OH,4S-Me)]; lactam 1-C)
0.03 µg/mL

----------
Tested on: Penicillium
Assay: Antimicrobial activity against Penicillium spp. by broth microdilution method
Type: functional
*1 amine or outer side, *2 acyl side, *3 side chain or, on linkers, in order; H or OH if unused. Where a SMILES comes first, the peptide text is derived from it. Bridges are numbered along the chain shown (N, C = ends). [ ]: non-standard residue; d: D form. The star is where a group is joined. hTyr(3S-OH,4S-OH,3'-OSO3H) = N[C@H](C(=O)O)[C@H](O)[C@@H](O)c1ccc(O)c(OS(=O)(=O)O)c1; pTerphenylCO(4''-OnC5H11) = CCCCCOc1ccc(-c2ccc(-c3ccc(C(=O)*)cc3)cc2)cc1; Orn(4R-OH,5R-OH) = O=C([C@H](C[C@@H](O)[C@@H](O)N[*:3])N[*:1])[*:2]; hTyr(3S-OH,4S-OH) = N[C@H](C(=O)O)[C@H](O)[C@@H](O)c1ccc(O)cc1; Pro(3S-OH,4S-Me) = C[C@H]1CN[C@H](C(=O)O)[C@H]1O; X1 = CCCCCOc1ccc(-c2cc(-c3ccc(C(=O)*)cc3)no2)cc1; Gln(3R-OH) = NC(=O)C[C@@H](O)[C@H](N)C(=O)O; Hyp = O=C(O)[C@@H]1C[C@@H](O)CN1
experimental-endpoint: MIC90

Please supply MIC90 for each of the following items, keeping them in order.
1. CC[C@H](C)C[C@H](C)CCCCCCCCC(=O)N[C@H]1C[C@@H](O)[C@@H](NCCN)NC(=O)[C@@H]2[C@@H](O)CCN2C(=O)[C@H]([C@H](O)CCN)NC(=O)[C@H]([C@H](O)[C@@H](O)c2ccc(O)cc2)NC(=O)[C@@H]2C[C@@H](O)CN2C(=O)[C@H]([C@@H](C)O)NC1=O [CASPOFUNGIN]
2. C[C@@H](c1ncncc1F)[C@](O)(Cn1cncn1)c1ccc(F)cc1F [VORICONAZOLE]
3. CCCCCOc1ccc(-c2ccc(-c3ccc(C(=O)N[C@H]4C[C@@H](O)[C@@H](O)NC(=O)[C@@H]5[C@@H](O)[C@@H](C)CN5C(=O)[C@H]([C@@H](C)O)NC(=O)[C@H]([C@H](O)[C@@H](O)c5ccc(O)cc5)NC(=O)[C@@H]5C[C@@H](O)CN5C(=O)[C@H]([C@@H](C)O)NC4=O)cc3)cc2)cc1 [ANIDULAFUNGIN] ({pTerphenylCO(4''-OnC5H11)}-[Orn(4R-OH,5R-OH)]T[Hyp][hTyr(3S-OH,4S-OH)]T[Pro(3S-OH,4S-Me)]; lactam 1-C)
4. C[C@@H]1[C@H](O)[C@@H](C)/C=C/C=C/C=C/C=C/C=C/C=C/C=C/[C@H](O[C@@H]2O[C@H](C)[C@@H](O)[C@H](N)[C@@H]2O)C[C@@H]2O[C@](O)(C[C@@H](O)C[C@@H](O)[C@H](O)CC[C@@H](O)C[C@@H](O)CC(=O)O[C@H]1C)C[C@H](O)[C@H]2C(=O)O [AMPHOTERICIN B]
5. CC[C@@H]([C@H](C)O)n1ncn(-c2ccc(N3CCN(c4ccc(OC[C@@H]5CO[C@@](Cn6cncn6)(c6ccc(F)cc6F)C5)cc4)CC3)cc2)c1=O [POSACONAZOLE]

["8 µg/mL", "8 µg/mL", "0.03 µg/mL", "2 µg/mL", "4 µg/mL"]

Please supply MIC90 for each of the following items, keeping them in order.
1. CCCCCOc1ccc(-c2cc(-c3ccc(C(=O)N[C@H]4C[C@@H](O)[C@@H](O)NC(=O)[C@@H]5[C@@H](O)[C@@H](C)CN5C(=O)[C@H]([C@H](O)CC(N)=O)NC(=O)[C@H]([C@H](O)[C@@H](O)c5ccc(O)c(OS(=O)(=O)O)c5)NC(=O)[C@@H]5C[C@@H](O)CN5C(=O)[C@H]([C@@H](C)O)NC4=O)cc3)no2)cc1 [MICAFUNGIN] (X1-[Orn(4R-OH,5R-OH)]T[Hyp][hTyr(3S-OH,4S-OH,3'-OSO3H)][Gln(3R-OH)][Pro(3S-OH,4S-Me)]; lactam 1-C)
2. CCC(C)n1ncn(-c2ccc(N3CCN(c4ccc(OCC5COC(Cn6cncn6)(c6ccc(Cl)cc6Cl)O5)cc4)CC3)cc2)c1=O (configuration not stated) [ITRACONAZOLE]

["0.06 µg/mL", "> 8 µg/mL"]

----------
Tested on: Lichtheimia corymbifera
Assay: Antimicrobial activity against Mycocladus corymbiferus by broth microdilution method
Format: functional
*1 amine or outer side, *2 acyl side, *3 side chain or, on linkers, in order; H or OH if unused. Where a SMILES comes first, the peptide text is derived from it. Bridges are numbered along the chain shown (N, C = ends). [ ]: non-standard residue; d: D form. The star is where a group is joined. hTyr(3S-OH,4S-OH,3'-OSO3H) = N[C@H](C(=O)O)[C@H](O)[C@@H](O)c1ccc(O)c(OS(=O)(=O)O)c1; pTerphenylCO(4''-OnC5H11) = CCCCCOc1ccc(-c2ccc(-c3ccc(C(=O)*)cc3)cc2)cc1; Orn(4R-OH,5R-OH) = O=C([C@H](C[C@@H](O)[C@@H](O)N[*:3])N[*:1])[*:2]; hTyr(3S-OH,4S-OH) = N[C@H](C(=O)O)[C@H](O)[C@@H](O)c1ccc(O)cc1; Pro(3S-OH,4S-Me) = C[C@H]1CN[C@H](C(=O)O)[C@H]1O; X1 = CCCCCOc1ccc(-c2cc(-c3ccc(C(=O)*)cc3)no2)cc1; Gln(3R-OH) = NC(=O)C[C@@H](O)[C@H](N)C(=O)O; Hyp = O=C(O)[C@@H]1C[C@@H](O)CN1
experimental-endpoint: MIC50

See these solved cases before continuing.
| compound | assayed-target | measured-result |
| --- | --- | --- |
| CCCCCOc1ccc(-c2cc(-c3ccc(C(=O)N[C@H]4C[C@@H](O)[C@@H](O)NC(=O)[C@@H]5[C@@H](O)[C@@H](C)CN5C(=O)[C@H]([C@H](O)CC(N)=O)NC(=O)[C@H]([C@H](O)[C@@H](O)c5ccc(O)c(OS(=O)(=O)O)c5)NC(=O)[C@@H]5C[C@@H](O)CN5C(=O)[C@H]([C@@H](C)O)NC4=O)cc3)no2)cc1 [MICAFUNGIN] (X1-[Orn(4R-OH,5R-OH)]T[Hyp][hTyr(3S-OH,4S-OH,3'-OSO3H)][Gln(3R-OH)][Pro(3S-OH,4S-Me)]; lactam 1-C) | Lichtheimia corymbifera | > 16 µg/mL |
| CCCCCOc1ccc(-c2ccc(-c3ccc(C(=O)N[C@H]4C[C@@H](O)[C@@H](O)NC(=O)[C@@H]5[C@@H](O)[C@@H](C)CN5C(=O)[C@H]([C@@H](C)O)NC(=O)[C@H]([C@H](O)[C@@H](O)c5ccc(O)cc5)NC(=O)[C@@H]5C[C@@H](O)CN5C(=O)[C@H]([C@@H](C)O)NC4=O)cc3)cc2)cc1 [ANIDULAFUNGIN] ({pTerphenylCO(4''-OnC5H11)}-[Orn(4R-OH,5R-OH)]T[Hyp][hTyr(3S-OH,4S-OH)]T[Pro(3S-OH,4S-Me)]; lactam 1-C) | Lichtheimia corymbifera | > 16 µg/mL |

Now examine the next entry.
# return recorded MIC50 for entry C[C@@H](c1ncncc1F)[C@](O)(Cn1cncn1)c1ccc(F)cc1F
> 8 µg/mL
